- protocol_details: Solubility in water
- Type: physicochemical
- experimental_setup: 25° C., RH 65%, 100 g deionized water, added 0.1 g at a time
Here the recorded Solubility in 100 parts by mass of water is given for each entry.

{"compound": "Cc1cc(C)c(C(=O)P(=O)(O)c2ccccc2)c(C)c1 [Compound 105]", "Solubility in 100 parts by mass of water": "≥50 parts by mass"}
{"compound": "O=C(O)c1cccc2c(=O)c3ccccc3sc12 [Compound 106, thioxanthone carboxylic acid]", "Solubility in 100 parts by mass of water": "<0.1 parts by mass"}
{"compound": "CC12CCC(C(=O)C1=O)C2(C)C (stereo not drawn) [Compound 104, camphor quinone]", "Solubility in 100 parts by mass of water": "<0.1 parts by mass"}
